The measurements presented in this section are drawn from ChEMBL document CHEMBL1221353.

Organism: Homo sapiens
measurement.protocol: Selectivity ratio of Ki for human dopamine D2S receptor to Ki for human dopamine D3 receptor
Task for the reader: assign each of the following compounds its reported Ratio Ki.
Please give the numeric answer without any surrounding text.

Q: For the compound FC(F)(F)c1cccc(N2CCN(CCCCNc3nccc4ccccc34)CC2)c1 , what Ratio Ki is on record?
Ans: 58

Q: Quick one: Ratio Ki of COc1ccccc1N1CCN(CCCCNc2nccc3ccccc23)CC1 ?
Ans: 70

Q: Consider the compound Fc1ccccc1N1CCN(CCCCNc2ccc(-c3ccccc3)cn2)CC1 and give its measured Ratio Ki.
Ans: 49

Q: Suppose we examine the compound FC(F)(F)c1cccc(N2CCN(CCCCNc3ncc(-c4ccccc4)o3)CC2)c1 ; what Ratio Ki value has been reported?
Ans: 242

Q: // lookup Ratio Ki for FC(F)(F)c1cccc(N2CCN(CCCCNc3ccc(-c4ccccc4)cn3)CC2)c1
Ans: 130

Q: Reported Ratio Ki for Clc1cccc(N2CCN(CCCCNc3ccc4ccccc4n3)CC2)c1Cl : what is it?
Ans: 39

Q: Fill blank: measured Ratio Ki of the compound Cc1ccccc1N1CCN(CCCCNc2ccccn2)CC1 is ____.
Ans: 12

Q: Given COc1ccccc1N1CCN(CCCCNc2ccccn2)CC1 , state its recorded Ratio Ki.
Ans: 247

Q: Bench note: what Ratio Ki did Cc1cccc(N2CCN(CCCCNc3ccccn3)CC2)c1C show?
Ans: 17

Q: Any idea what Ratio Ki was measured for FC(F)(F)c1cccc(N2CCN(CCCCNc3ccccn3)CC2)c1 ?
Ans: 12

Q: I would be grateful if you could share the reported Ratio Ki for FC(F)(F)c1cccc(N2CCN(CCCCNc3cc(-c4ccccc4)ccn3)CC2)c1 .
Ans: 256

Q: # query: Ratio Ki of entry Fc1ccccc1N1CCN(CCCCNc2cc(-c3ccccc3)ccn2)CC1
Ans: 206
